# Test Target: CYP2C9 (Homo sapiens)
# Construct: purchased BD Biosciences
# Sequence (P11712 whole entry): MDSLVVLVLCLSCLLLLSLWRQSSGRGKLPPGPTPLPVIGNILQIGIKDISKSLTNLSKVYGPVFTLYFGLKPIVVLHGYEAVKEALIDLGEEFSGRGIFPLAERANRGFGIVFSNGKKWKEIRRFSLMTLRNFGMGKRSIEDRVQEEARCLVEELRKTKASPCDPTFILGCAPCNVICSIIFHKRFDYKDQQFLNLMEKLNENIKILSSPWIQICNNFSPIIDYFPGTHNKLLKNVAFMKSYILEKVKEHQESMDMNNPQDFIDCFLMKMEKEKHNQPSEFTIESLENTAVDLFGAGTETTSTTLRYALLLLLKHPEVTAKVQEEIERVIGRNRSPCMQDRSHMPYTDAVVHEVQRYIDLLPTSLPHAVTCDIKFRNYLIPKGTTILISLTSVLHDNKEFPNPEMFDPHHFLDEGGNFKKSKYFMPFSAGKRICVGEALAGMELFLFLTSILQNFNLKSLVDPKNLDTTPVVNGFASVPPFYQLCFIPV
# Assay Summary: CYP inhibition (fluorescent substrate), CYP2C9
# Assay type: in vitro ADME
# Condition Summary: substrate MFC; read-out: Cyp IC50 (μM) 2C9
Observed Property: IC50

>>> result_value("N#Cc1cnc2[nH]cc(C(=O)c3c(F)ccc(NS(=O)(=O)N4CCCC4)c3F)c2c1 [Compound P-0006]")
"> 10 µM"
>>> result_value("N#Cc1cnc2[nH]cc(C(=O)c3c(F)ccc(NS(=O)(=O)c4cccc(F)c4)c3F)c2c1 [Compound P-0005]")
"5 to 10 µM"
>>> result_value("CCCS(=O)(=O)Nc1ccc(F)c(C(=O)c2c[nH]c3ncc(C#N)cc23)c1F [Compound P-0002]")
"5 to 10 µM"
>>> result_value("N#Cc1cnc2[nH]cc(C(=O)c3c(F)ccc(NS(=O)(=O)c4cc(F)ccc4F)c3F)c2c1 [Compound P-0004]")
"> 10 µM"
>>> result_value("CCCS(=O)(=O)Nc1cccc(C(=O)c2c[nH]c3ncc(C#N)cc23)c1F [Compound P-0003]")
"> 10 µM"
>>> result_value("CN(C)S(=O)(=O)Nc1ccc(F)c(C(=O)c2c[nH]c3ncc(C#N)cc23)c1F [Compound P-0007]")
"> 10 µM"
>>> result_value("CCCS(=O)(=O)Nc1ccc(F)c(C(=O)c2c[nH]c3ncc(-c4cnc(OC)nc4)cc23)c1F [Compound P-0001]")
"5 to 10 µM"

====

# Test Target: B-Raf (Homo sapiens)
# Construct: purchased Upstate Biotechnology
# Sequence (P15056 whole entry): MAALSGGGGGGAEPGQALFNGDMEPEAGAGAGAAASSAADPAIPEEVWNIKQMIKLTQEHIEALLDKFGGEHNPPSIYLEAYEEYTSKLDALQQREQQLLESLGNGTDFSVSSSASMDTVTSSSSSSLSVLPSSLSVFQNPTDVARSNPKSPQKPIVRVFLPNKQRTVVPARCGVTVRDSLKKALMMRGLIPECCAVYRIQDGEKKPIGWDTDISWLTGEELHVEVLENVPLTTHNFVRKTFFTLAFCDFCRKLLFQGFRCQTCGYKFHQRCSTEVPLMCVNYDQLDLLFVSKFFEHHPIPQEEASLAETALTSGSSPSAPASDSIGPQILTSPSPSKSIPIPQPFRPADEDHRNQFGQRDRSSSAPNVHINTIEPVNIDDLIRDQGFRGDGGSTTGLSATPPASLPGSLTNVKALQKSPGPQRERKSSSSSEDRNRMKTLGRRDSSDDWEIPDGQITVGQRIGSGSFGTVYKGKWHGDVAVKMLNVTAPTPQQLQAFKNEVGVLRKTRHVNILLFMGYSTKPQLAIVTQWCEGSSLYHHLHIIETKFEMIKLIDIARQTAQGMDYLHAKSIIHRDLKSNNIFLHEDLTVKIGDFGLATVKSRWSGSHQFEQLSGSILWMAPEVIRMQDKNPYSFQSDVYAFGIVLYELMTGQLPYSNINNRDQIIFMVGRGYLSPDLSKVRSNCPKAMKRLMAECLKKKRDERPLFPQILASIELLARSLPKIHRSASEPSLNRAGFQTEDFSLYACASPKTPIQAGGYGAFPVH
# Assay Summary: Raf biochemical kinase assay (biotin-MEK1 phosphorylation), B-Raf
# Condition Summary: 100 μM ATP
Listed below: IC50 values for each entry.
Observed Property: IC50

>>> result_value("N#Cc1cnc2[nH]cc(C(=O)c3c(F)ccc(NS(=O)(=O)N4CCCC4)c3F)c2c1 [Compound P-0006]")
"< 0.1 µM"
>>> result_value("N#Cc1cnc2[nH]cc(C(=O)c3c(F)ccc(NS(=O)(=O)c4cccc(F)c4)c3F)c2c1 [Compound P-0005]")
"< 0.01 µM"
>>> result_value("CN(C)S(=O)(=O)Nc1ccc(F)c(C(=O)c2c[nH]c3ncc(C#N)cc23)c1F [Compound P-0007]")
"< 1 µM"
>>> result_value("N#Cc1cnc2[nH]cc(C(=O)c3c(F)ccc(NS(=O)(=O)c4cc(F)ccc4F)c3F)c2c1 [Compound P-0004]")
"< 0.1 µM"
>>> result_value("CCCS(=O)(=O)Nc1ccc(F)c(C(=O)c2c[nH]c3ncc(-c4cnc(OC)nc4)cc23)c1F [Compound P-0001]")
"< 0.1 µM"
>>> result_value("CCCS(=O)(=O)Nc1ccc(F)c(C(=O)c2c[nH]c3ncc(C#N)cc23)c1F [Compound P-0002]")
"< 0.1 µM"
>>> result_value("CCCS(=O)(=O)Nc1cccc(C(=O)c2c[nH]c3ncc(C#N)cc23)c1F [Compound P-0003]")
"< 1 µM"

====

# Test Target: CYP1A2 (Homo sapiens, UniProt P05177)
# Construct: purchased BD Biosciences
# Sequence (P05177 whole entry): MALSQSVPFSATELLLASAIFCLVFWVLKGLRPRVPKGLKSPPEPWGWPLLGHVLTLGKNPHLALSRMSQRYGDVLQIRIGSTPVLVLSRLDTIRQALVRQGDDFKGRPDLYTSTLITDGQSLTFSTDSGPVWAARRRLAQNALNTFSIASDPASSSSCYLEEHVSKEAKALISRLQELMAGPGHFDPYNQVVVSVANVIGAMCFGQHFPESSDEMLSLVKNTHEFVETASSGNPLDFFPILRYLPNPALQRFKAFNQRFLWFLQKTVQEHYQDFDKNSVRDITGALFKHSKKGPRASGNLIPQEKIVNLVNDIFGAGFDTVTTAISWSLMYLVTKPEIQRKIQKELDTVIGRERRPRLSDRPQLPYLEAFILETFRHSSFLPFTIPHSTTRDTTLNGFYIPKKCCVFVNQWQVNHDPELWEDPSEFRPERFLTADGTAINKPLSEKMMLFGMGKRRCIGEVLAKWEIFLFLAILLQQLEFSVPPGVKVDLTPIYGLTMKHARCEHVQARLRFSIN
# Assay Summary: CYP inhibition (fluorescent substrate), CYP1A2
# Type: in vitro ADME
# Condition Summary: substrate CEC; read-out: Cyp IC50 (μM) 1A2
Observed Property: IC50

>>> result_value("CCCS(=O)(=O)Nc1ccc(F)c(C(=O)c2c[nH]c3ncc(-c4cnc(OC)nc4)cc23)c1F [Compound P-0001]")
"> 10 µM"
>>> result_value("CCCS(=O)(=O)Nc1cccc(C(=O)c2c[nH]c3ncc(C#N)cc23)c1F [Compound P-0003]")
"> 10 µM"
>>> result_value("CN(C)S(=O)(=O)Nc1ccc(F)c(C(=O)c2c[nH]c3ncc(C#N)cc23)c1F [Compound P-0007]")
"> 10 µM"

====

Listed below: IC50 values for each entry.
# Test Target: CYP3A4(BFC) (Homo sapiens, UniProt P08684)
# Construct: purchased BD Biosciences
# Sequence (P08684 whole entry): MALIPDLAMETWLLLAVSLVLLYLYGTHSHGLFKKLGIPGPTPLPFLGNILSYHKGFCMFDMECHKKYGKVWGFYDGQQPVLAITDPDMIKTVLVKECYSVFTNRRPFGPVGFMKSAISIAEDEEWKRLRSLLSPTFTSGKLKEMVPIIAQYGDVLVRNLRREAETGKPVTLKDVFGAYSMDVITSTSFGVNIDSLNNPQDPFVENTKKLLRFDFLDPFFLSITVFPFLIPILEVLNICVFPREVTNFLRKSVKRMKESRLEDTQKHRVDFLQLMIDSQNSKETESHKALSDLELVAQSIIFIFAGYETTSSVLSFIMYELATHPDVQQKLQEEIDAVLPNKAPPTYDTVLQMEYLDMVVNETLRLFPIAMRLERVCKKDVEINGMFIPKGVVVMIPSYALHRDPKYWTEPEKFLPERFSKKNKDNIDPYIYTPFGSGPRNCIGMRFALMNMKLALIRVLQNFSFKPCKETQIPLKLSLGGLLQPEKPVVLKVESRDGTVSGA
# Assay Summary: CYP inhibition (fluorescent substrate), CYP3A4(BFC)
# Assay type: in vitro ADME
# Condition Summary: read-out: Cyp IC50 (μM) 3A4(BFC)
Observed Property: IC50

>>> result_value("CCCS(=O)(=O)Nc1cccc(C(=O)c2c[nH]c3ncc(C#N)cc23)c1F")
"> 10 µM"
>>> result_value("N#Cc1cnc2[nH]cc(C(=O)c3c(F)ccc(NS(=O)(=O)N4CCCC4)c3F)c2c1")
"> 10 µM"
>>> result_value("CCCS(=O)(=O)Nc1ccc(F)c(C(=O)c2c[nH]c3ncc(-c4cnc(OC)nc4)cc23)c1F")
"> 10 µM"
>>> result_value("CN(C)S(=O)(=O)Nc1ccc(F)c(C(=O)c2c[nH]c3ncc(C#N)cc23)c1F")
"5 to 10 µM"
>>> result_value("N#Cc1cnc2[nH]cc(C(=O)c3c(F)ccc(NS(=O)(=O)c4cccc(F)c4)c3F)c2c1")
"> 10 µM"
>>> result_value("N#Cc1cnc2[nH]cc(C(=O)c3c(F)ccc(NS(=O)(=O)c4cc(F)ccc4F)c3F)c2c1")
"5 to 10 µM"
>>> result_value("CCCS(=O)(=O)Nc1ccc(F)c(C(=O)c2c[nH]c3ncc(C#N)cc23)c1F")
"> 10 µM"

====

# Test Target: UniProt:Q06187
# Sequence (Q06187 whole entry, species assumed): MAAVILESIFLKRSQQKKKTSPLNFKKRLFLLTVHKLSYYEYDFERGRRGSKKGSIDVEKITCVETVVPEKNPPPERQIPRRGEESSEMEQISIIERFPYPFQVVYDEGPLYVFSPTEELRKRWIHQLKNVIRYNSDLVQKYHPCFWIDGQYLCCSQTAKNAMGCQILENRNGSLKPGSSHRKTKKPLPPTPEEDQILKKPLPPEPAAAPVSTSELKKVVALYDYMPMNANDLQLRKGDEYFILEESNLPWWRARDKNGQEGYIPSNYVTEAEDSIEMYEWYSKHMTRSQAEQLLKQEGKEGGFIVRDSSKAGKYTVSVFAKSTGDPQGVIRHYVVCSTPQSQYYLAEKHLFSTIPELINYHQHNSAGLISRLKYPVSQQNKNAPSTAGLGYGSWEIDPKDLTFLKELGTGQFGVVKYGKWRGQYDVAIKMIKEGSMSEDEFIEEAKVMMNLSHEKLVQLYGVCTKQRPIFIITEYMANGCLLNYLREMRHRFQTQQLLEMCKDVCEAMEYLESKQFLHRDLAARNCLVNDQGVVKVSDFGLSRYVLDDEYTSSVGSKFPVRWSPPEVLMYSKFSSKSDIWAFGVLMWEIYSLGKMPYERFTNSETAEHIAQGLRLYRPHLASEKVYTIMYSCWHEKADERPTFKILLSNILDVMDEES
# Assay Summary: Biochemical inhibitory activity, other protein kinases: Btk
# Condition Summary: listing of the kinase means IC50 >1 μM
Observed Property: Kinase having IC50 of >1 μM

>>> result_value("N#Cc1cnc2[nH]cc(C(=O)c3c(F)ccc(NS(=O)(=O)c4cccc(F)c4)c3F)c2c1 [Compound P-0005]")
"Btk"
>>> result_value("CN(C)S(=O)(=O)Nc1ccc(F)c(C(=O)c2c[nH]c3ncc(C#N)cc23)c1F [Compound P-0007]")
"Btk"
>>> result_value("N#Cc1cnc2[nH]cc(C(=O)c3c(F)ccc(NS(=O)(=O)c4cc(F)ccc4F)c3F)c2c1 [Compound P-0004]")
"Btk"

====

# Test Target: MAPKAPK2 (Homo sapiens)
# Assay Summary: Biochemical inhibitory activity, other protein kinases: MAPKAPK2
# Condition Summary: listing of the kinase means IC50 >1 μM
Observed Property: Kinase having IC50 of >1 μM

>>> result_value("CCCS(=O)(=O)Nc1cccc(C(=O)c2c[nH]c3ncc(C#N)cc23)c1F")
"MAPKAPK2"
>>> result_value("CN(C)S(=O)(=O)Nc1ccc(F)c(C(=O)c2c[nH]c3ncc(C#N)cc23)c1F")
"MAPKAPK2"
>>> result_value("N#Cc1cnc2[nH]cc(C(=O)c3c(F)ccc(NS(=O)(=O)N4CCCC4)c3F)c2c1")
"MAPKAPK2"
>>> result_value("CCCS(=O)(=O)Nc1ccc(F)c(C(=O)c2c[nH]c3ncc(C#N)cc23)c1F")
"MAPKAPK2"
>>> result_value("CCCS(=O)(=O)Nc1ccc(F)c(C(=O)c2c[nH]c3ncc(-c4cnc(OC)nc4)cc23)c1F")
"MAPKAPK2"

====

# Test Target: Hgk (Homo sapiens)
# Sequence (O95819 whole entry, species assumed): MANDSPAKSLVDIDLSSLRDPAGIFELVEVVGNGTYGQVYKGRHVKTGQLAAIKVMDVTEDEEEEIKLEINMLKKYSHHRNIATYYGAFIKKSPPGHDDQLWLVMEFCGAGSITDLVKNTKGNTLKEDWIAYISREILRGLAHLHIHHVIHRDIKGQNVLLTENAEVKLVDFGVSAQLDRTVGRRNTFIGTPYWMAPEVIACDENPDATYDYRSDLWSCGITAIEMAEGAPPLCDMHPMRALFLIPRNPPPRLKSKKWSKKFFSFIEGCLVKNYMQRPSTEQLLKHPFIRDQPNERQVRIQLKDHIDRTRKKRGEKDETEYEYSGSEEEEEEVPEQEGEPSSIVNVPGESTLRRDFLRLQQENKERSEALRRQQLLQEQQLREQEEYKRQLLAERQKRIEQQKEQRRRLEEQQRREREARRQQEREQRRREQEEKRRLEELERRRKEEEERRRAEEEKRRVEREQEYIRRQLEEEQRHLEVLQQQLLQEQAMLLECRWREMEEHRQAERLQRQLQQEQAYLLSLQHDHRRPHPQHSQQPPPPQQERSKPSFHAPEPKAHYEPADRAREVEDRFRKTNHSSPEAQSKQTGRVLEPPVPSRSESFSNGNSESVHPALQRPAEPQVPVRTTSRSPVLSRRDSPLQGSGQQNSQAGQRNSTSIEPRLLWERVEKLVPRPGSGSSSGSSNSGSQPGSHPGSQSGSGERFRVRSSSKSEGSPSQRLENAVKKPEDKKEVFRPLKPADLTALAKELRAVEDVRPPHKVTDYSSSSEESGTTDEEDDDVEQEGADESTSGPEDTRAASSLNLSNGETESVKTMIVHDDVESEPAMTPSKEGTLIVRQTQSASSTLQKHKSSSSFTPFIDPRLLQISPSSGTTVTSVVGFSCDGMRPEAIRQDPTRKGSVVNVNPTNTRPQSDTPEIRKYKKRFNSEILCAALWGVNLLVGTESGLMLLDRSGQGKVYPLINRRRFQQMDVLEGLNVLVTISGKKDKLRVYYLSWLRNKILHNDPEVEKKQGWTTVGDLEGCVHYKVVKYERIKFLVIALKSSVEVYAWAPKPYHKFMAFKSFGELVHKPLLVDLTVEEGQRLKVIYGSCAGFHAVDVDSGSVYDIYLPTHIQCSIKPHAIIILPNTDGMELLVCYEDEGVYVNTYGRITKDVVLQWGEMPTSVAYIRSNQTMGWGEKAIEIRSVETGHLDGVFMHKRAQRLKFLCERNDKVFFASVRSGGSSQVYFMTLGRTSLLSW
# Assay Summary: Biochemical inhibitory activity, other protein kinases: Hgk
# Condition Summary: listing of the kinase means IC50 >1 μM
Observed Property: Kinase having IC50 of >1 μM

>>> result_value("CCCS(=O)(=O)Nc1cccc(C(=O)c2c[nH]c3ncc(C#N)cc23)c1F")
"Hgk"
>>> result_value("N#Cc1cnc2[nH]cc(C(=O)c3c(F)ccc(NS(=O)(=O)N4CCCC4)c3F)c2c1")
"Hgk"
>>> result_value("CCCS(=O)(=O)Nc1ccc(F)c(C(=O)c2c[nH]c3ncc(C#N)cc23)c1F")
"Hgk"
>>> result_value("CCCS(=O)(=O)Nc1ccc(F)c(C(=O)c2c[nH]c3ncc(-c4cnc(OC)nc4)cc23)c1F")
"Hgk"
>>> result_value("CN(C)S(=O)(=O)Nc1ccc(F)c(C(=O)c2c[nH]c3ncc(C#N)cc23)c1F")
"Hgk"

====

# Test Target: CYP2C19 (Homo sapiens)
# Construct: purchased BD Biosciences
# Sequence (P33261 whole entry): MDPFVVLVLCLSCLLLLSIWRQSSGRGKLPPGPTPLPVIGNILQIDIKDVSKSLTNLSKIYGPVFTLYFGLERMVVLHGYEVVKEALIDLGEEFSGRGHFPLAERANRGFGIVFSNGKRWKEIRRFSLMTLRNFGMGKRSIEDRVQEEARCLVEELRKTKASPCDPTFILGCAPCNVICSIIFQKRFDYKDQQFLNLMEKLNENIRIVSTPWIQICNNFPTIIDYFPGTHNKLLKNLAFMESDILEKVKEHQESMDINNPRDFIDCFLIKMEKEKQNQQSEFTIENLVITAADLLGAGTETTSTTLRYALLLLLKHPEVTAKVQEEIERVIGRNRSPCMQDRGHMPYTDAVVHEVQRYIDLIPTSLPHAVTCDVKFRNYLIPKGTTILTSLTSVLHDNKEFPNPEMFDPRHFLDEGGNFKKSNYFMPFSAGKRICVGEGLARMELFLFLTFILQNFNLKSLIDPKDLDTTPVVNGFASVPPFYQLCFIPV
# Assay Summary: CYP inhibition (fluorescent substrate), CYP2C19
# Format: in vitro ADME
# Condition Summary: substrate CEC; read-out: Cyp IC50 (μM) 2C19
Observed Property: IC50

>>> result_value("N#Cc1cnc2[nH]cc(C(=O)c3c(F)ccc(NS(=O)(=O)c4cc(F)ccc4F)c3F)c2c1")
"> 10 µM"
>>> result_value("N#Cc1cnc2[nH]cc(C(=O)c3c(F)ccc(NS(=O)(=O)c4cccc(F)c4)c3F)c2c1")
"> 10 µM"
>>> result_value("CCCS(=O)(=O)Nc1ccc(F)c(C(=O)c2c[nH]c3ncc(-c4cnc(OC)nc4)cc23)c1F")
"> 10 µM"
>>> result_value("CCCS(=O)(=O)Nc1cccc(C(=O)c2c[nH]c3ncc(C#N)cc23)c1F")
"> 10 µM"
>>> result_value("CCCS(=O)(=O)Nc1ccc(F)c(C(=O)c2c[nH]c3ncc(C#N)cc23)c1F")
"5 to 10 µM"
>>> result_value("CN(C)S(=O)(=O)Nc1ccc(F)c(C(=O)c2c[nH]c3ncc(C#N)cc23)c1F")
"> 10 µM"
>>> result_value("N#Cc1cnc2[nH]cc(C(=O)c3c(F)ccc(NS(=O)(=O)N4CCCC4)c3F)c2c1")
"> 10 µM"
